procedure.text: Human HepG2 cell viability assay in 384 well format
Format: toxicity, cell-based
Parameters: dose 125 nL, time 70.5 hour; concentration not given beside the values
experimental.parameters: HepG2 cells, read-out: Inhibition
cytotoxicity at 70.5 h values for the molecules below.
measured.quantity: cytotoxicity at 70.5 h (%)

| molecule | measured |
| --- | --- |
| Cc1ccc2c(c1)OC(C)CN2C(=O)c1c[nH]c(C)cc1=O (stereo unspecified) | 2.52 |
| COCC[C@]1(O)CCN(Cc2nnc(C)s2)C[C@H]1C | -9.14 |
| CN(Cc1c[nH]nc1-c1ccc(F)cc1F)Cc1nccn1C | 21.7 |
| O=C(c1c[nH]cn1)N1CCOCC2(C1)CN(c1ccccc1)C(=O)CO2 (stereo unspecified) | -13.7 |
| Cc1ncsc1CN1C[C@H](C(=O)NC2CCCC2)[C@@H]2CCO[C@@H]2C1 | -1.79 |
| Cc1cc(-c2cnn(CCNC(=O)C3CC3)c2C2CC2)on1 | 27 |
| COc1ccccc1CNC(=O)N1CCCC(c2nncn2C)C1 (stereo unspecified) | -2.85 |
| CCCN1CC[C@@H]2[C@@H](CO[C@H]2CNC(=O)c2nccn2C)C1 | -5.44 |
| OC1(Cn2ccc3ncccc32)CCN(Cc2cccnc2)CC1 | -2.24 |
| COc1cc(C(=O)NC(C)(C)CN2CCN(C)CC2)c2ccccc2n1 | -11.5 |
| CN(C)c1cccc(C(=O)NCC2(O)CCOCC2)c1 | -0.873 |

Hey, just so you know, these numbers are from ChEMBL document CHEMBL3507680.
